target: T1, hIL-17A (human, UniProt Q16552 24-155); test: ELISA on captured hIL-17A, cleared E. coli lysates
T1 construct: Bought protein
T1 sequence (Q16552 24-155 limits assumed): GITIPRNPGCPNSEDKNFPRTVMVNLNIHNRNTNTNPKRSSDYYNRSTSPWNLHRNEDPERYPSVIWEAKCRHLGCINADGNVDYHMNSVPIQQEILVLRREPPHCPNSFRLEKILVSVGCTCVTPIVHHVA
measure.name: binding result

[[record]]
binder = "V4 expressed in E. coli (Trx-6xHis-tagged) (receptor, Tested as cleared E. coli lysate; not shown: N-terminal thioredoxin (Trx)-6xHistidine tag of pET32) LRLLDHRALVCSQPGLNCTVKNSTCLDDSWIHPRNLTPSSPKDIQIQLHFAHTQQGDLLPVAHIEWTPQTDASILYLEGAELSVLQLNTNERLCVRFEFLSKLRHHHRRWRFTFSHFVVDPDQEYEVTVHHLPKPIPDGDPNHQSKNFLVPDCEDARMKVTTPCMSSGSLWDPNITVETLEAHQLRVSFTLWNESTHYQILLTSFPHMENHSCFEHMHHIPAPRPEEFHQRSNVTLTLRNLKGCCRHQVQIQPFFSSCLNDCLRHSATVSCPEMPDTPEPIPDYMPLW"
result = "binds"

